B1: POU domain, class 4, transcription factor 1, residues 266 to 347; numbered along this chain, Q01851 (parent)
chain: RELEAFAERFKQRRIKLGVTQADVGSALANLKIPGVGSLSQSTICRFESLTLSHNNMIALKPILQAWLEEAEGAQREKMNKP

# Variants of: B1
# Experiment Notes: abundance fitness (aPCA) (normalised: wild type 0, dead -1); higher = more abundant; growth selection in yeast, the domain comes from the species named
# Setup Conditions: Homo sapiens
Listed variants paired with reported abundance fitness
Measured Attribute: abundance fitness

>>> result("A59G")
-0.103
>>> result("S49M")
-0.101
>>> result("A22C")
-0.098

The reported numbers originate from the Human Domainome abundance scans (Beltran et al. 2025).
